Molecular target: T1, Copenhagen B5 on cells infected with VVCopenhagen (YFP) virus (Vaccinia virus, Copenhagen strain, UniProt P21115 18-317)
T1 construct: also called VV B5
Assay: flow cytometry, HT29 cells infected with Copenhagen VV
Below: a set of entries, each annotated with reported EC50.
Response body: numeric value in nM, unit text excluded.

Example results:
| binder | EC50 / nM |
| --- | --- |
| A048-H4L3 (antibody, V domains shown) VH: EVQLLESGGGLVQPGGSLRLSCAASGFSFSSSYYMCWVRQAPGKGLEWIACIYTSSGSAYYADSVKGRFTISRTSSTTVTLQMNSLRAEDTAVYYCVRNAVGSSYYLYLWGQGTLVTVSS VL: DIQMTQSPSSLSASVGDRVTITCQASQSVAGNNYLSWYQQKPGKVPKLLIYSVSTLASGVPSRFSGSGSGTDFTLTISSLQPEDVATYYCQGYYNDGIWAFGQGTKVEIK | 1.12 |
| A048-H2L4 (antibody, V domains shown) VH: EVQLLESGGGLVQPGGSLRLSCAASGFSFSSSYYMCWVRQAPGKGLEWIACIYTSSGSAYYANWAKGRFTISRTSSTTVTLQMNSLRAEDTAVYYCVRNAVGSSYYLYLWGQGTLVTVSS VL: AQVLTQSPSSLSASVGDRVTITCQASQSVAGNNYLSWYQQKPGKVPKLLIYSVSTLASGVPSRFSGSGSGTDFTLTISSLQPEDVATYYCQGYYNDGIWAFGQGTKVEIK | 2.85 |

Can you share its EC50? I mean this binder: A048-H3L2 (antibody, V domains shown) VH: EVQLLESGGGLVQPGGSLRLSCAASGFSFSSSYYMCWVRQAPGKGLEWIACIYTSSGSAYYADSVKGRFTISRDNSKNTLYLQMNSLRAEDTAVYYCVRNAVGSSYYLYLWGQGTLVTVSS VL: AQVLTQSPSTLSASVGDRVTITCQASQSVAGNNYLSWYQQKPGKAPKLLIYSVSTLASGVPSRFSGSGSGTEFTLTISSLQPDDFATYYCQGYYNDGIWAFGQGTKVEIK
1.87

The measured values listed here are drawn from patent US20240309070A1.
